- Tested on: E. coli TK-111
- measurement-description: Antibacterial activity (MIC), agar dilution
- Assay type: cell-based
- assay-conditions: Escherichia coli, TK111, 20 h, E. coli TK-111; 10^6 cells per ml; 37° C., 20 hours; read-out: MIC
Listing of entries alongside the reported log10 of MIC.
measured-property: log10 of MIC (log10 of the value in µg/mL)

>>> recorded_value("CC(=O)Oc1ccc(-n2cc(C(=O)OCCN(C)C)c(=O)cc2-c2ccc(N(C)C)cc2)cc1 [drawing 37]")
-0.70
>>> recorded_value("Cc1nc2ccc(-c3cc(=O)c(C(=O)O)cn3-c3ccc(O)cc3)cc2s1")
-0.70
>>> recorded_value("Cc1cc(O)ccc1-n1cc(C(=O)O)c(=O)cc1/C=C/c1ccccc1")
-0.70
>>> recorded_value("CN(C)c1ccc(-c2cc(=O)c(C(=O)O)cn2-c2ccc(O)c(F)c2)cc1")
-1.00
>>> recorded_value("O=C(O)c1cn(-c2ccc(F)cc2)c(-c2ccc(Cl)s2)cc1=O")
0.19
>>> recorded_value("Nc1ccc(-c2cc(=O)c(C(=O)O)cn2-c2ccc(O)cc2)cc1")
-0.11
>>> recorded_value("O=C(O)c1cn(-c2ccc(O)cc2)c(-c2ccc(-c3ccccc3)cc2)cc1=O")
-1.00
>>> recorded_value("Cn1ccc2cc(-c3cc(=O)c(C(=O)O)cn3-c3ccc(F)cc3)ccc21")
-1.00
>>> recorded_value("Cc1cc(O)ccc1-n1cc(C(=O)O)c(=O)cc1C1CC=CCC1 (stereo not drawn)")
-1.00
>>> recorded_value("Cc1cc(O)ccc1-n1cc(C(=O)O)c(=O)cc1C1=CCCC1")
-0.70
>>> recorded_value("Cc1ccc(-c2cc(=O)c(C(=O)O)cn2-c2ccc(F)cc2)s1")
-0.11
>>> recorded_value("CN(C)c1ccc(-c2cc(=O)c(C(=O)O)cn2-c2ccc(F)cc2F)cc1")
-0.70
>>> recorded_value("O=C(O)c1cn(-c2ccc(O)cc2F)c(C2CC=CCC2)cc1=O (stereo not drawn)")
-0.41
>>> recorded_value("Cc1cc(O)ccc1-n1cc(C(=O)O)c(=O)cc1-c1ccc2[nH]ccc2c1")
-1.00
>>> recorded_value("Cc1cc(O)ccc1-n1cc(C(=O)O)c(=O)cc1C1CCCCC1 [drawing 12]")
-0.11
>>> recorded_value("Cc1nc(-c2ccc(-c3cc(=O)c(C(=O)O)cn3-c3ccc(F)cc3)cc2)cs1")
-0.41
